Record form. Attribute: ELISA (T/B). Fill in for each entry.
Molecular target: T1, human plasma kallikrein (human, UniProt P03952 20-390; P03952 391-638)
T1 construct: two disulfide-linked chains; NP_000883.2; also called pKal; hpKal
T1 sequence (P03952 20-390 limits assumed, chain 1 of 2): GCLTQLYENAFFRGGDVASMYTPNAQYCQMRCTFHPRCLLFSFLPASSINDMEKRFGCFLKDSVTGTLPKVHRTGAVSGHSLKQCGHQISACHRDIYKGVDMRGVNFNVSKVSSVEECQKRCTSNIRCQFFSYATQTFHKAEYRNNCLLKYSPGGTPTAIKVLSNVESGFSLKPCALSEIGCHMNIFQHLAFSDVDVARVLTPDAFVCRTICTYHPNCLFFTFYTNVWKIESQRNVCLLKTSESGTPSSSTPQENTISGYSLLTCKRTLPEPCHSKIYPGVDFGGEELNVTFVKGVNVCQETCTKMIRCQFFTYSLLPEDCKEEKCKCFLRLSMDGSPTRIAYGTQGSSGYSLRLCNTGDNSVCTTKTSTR
T1 sequence (P03952 391-638 limits assumed, chain 2 of 2): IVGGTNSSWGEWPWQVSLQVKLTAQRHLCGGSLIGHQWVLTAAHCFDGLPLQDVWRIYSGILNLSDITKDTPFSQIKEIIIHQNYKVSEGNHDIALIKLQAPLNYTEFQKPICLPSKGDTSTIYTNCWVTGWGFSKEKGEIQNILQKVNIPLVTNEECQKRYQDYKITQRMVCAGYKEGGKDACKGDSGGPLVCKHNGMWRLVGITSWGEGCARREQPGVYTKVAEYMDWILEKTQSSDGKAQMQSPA
Test: ELISA, biotinylated pKal signal over streptavidin background
One number for each entry.

>>> assay_value("M6-D08 (Fab, V domains shown) VH: EVQLLESGGGLVQPGGSLRLSCAASGFTFSRYHMVWVRQAPGKGLEWVSSISPSGGWTNYADSVKGRFTISRDNSKNTLYLQMNSLRAEDTAMYYCAREMATIAGQFDPWGQGTLVTVSS VL: DIQMTQSPSSLSASVGDRVTITCRASQSISSYLNWYQQKPGKAPKLLIYGASSLQSGVPSRFSGSGSGTDFTLTISSLQPEDSATYYCQQSYTRWTFGQGTKVEIK")
16
>>> assay_value("M77-C07 (Fab, V domains shown) VH: EVQLLESGGGLVQPGGSLRLSCAASGFTFSLYIMGWVRQAPGKGLEWVSGIYPSGGFTMYADSVKGRFTISRDNSKNTLYLQMNSLRAEDTAVYYCARESSGVAAPDYWGQGTLVTVSS VL: DIQMTQSPSTLSASVGDRVTITCRASQNISSYLNWYQQKPGKAPKLLIYAASSLQSGVPSRFSGSGSGTDFTLTISSLQPEDFATYSCQQSYSTPRTFGQGTKVEIK")
16.1

Switching to the query record.
In plain terms, M11-G12 (Fab, V domains shown) VH: EVQLLESGGGLVQPGGSLRLSCAASGFTFSQYPMNWVRQAPGKGLEWVSSISSSGGFTTYADSVKGRFTISRDNSKNTLYLQMNSLRAEDTAVYYCAREEQQGGFDYWGQGTLVTVSS VL: DIQMTQSPSSLSAFVGDRVSITCRASQTISVYVNWYQHKSGQAPKLLIYGASSLQSGVPSRFSGSGSGTDFTLTISSLQPEDFATYFCQQSYSIPFTFGGGTDVQIR has a documented ELISA (T/B) of 4.9
